The measured values listed here are drawn from PubChem BioAssay (EPA / NIEHS).

# MEASUREMENT_NOTES: CCTE_Shafer_MEA_acute_synchrony_index: CCTE's Neural Acute Assay for Synchrony, Shafer Lab (AID 2284027);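 also: network synchrony index of spontaneous spiking in primary rat cortical neurons on MEAs; fitted for loss of signal so actives lower synchrony relative to DMSO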
Active and inactive are the calls of the source. The calls were made as follows: active = hit-call score of the fitted dose curve at least 0.9, where 1 is the maximum; inactive = score below 0.9.
OBSERVABLE: AC50

Given the entry `Nc1c(Cl)c(F)nc(OCC(=O)O)c1Cl` , report its measured AC50. inactive

Request the reported AC50 associated with `CCOP(=O)(OCC)Oc1nc(Cl)c(Cl)cc1Cl` 0.0262 µM (active)

Give the measured AC50 of CCCCC(O)(Cn1cncn1)c1ccc(Cl)cc1Cl (stereo unspecified) . inactive

// AC50 lookup, key: CC1(C)C(C=C(Cl)Cl)C1C(=O)OC(C#N)c1cccc(Oc2ccccc2)c1 (stereo unspecified) 3.97 µM (active)

AC50 for CCOC(=O)C(C)OC(=O)c1cc(Oc2ccc(C(F)(F)F)cc2Cl)ccc1[N+](=O)[O-] (stereo unspecified) ? inactive

---
Value lookup for AC50; key = CCCN(CC)CC1COC2(CCC(C(C)(C)C)CC2)O1 (stereo unspecified) inactive

I have this compound here, `Cn1c(-c2ccccc2)cc(-c2ccccc2)[n+]1C` , and I need its recorded AC50. 36.8 µM (active)

For `N#Cc1c[nH]cc1-c1cccc2c1OC(F)(F)O2` , what is its reported AC50? inactive

For `CCOc1nc(F)cc2nc(S(=O)(=O)Nc3c(Cl)cccc3Cl)nn12` , what is its reported AC50? inactive

Give the measured AC50 of CCOc1cc(C(C)(C)C)ccc1C1COC(c2c(F)cccc2F)=N1 (stereo unspecified) . 20 µM (active)

Recorded AC50 of CC(C)=CC1C(C(=O)OCc2coc(Cc3ccccc3)c2)C1(C)C (stereo unspecified) , please. 20 µM (active)
